# Tested on: EKVX NSCLC
# Protocol Text: NCI tumour cell line growth inhibition, 48 h
TGI values, listed per item
// note: answer is a bare numeric in µM

Please fill in: TGI reported for CC(=O)OCC12CN(C#N)C3C4COC(CC41)C1(C(=O)N(C)c4ccccc41)C32 (centres undefined) = 88.9

Please fill in: TGI reported for `Cn1c2ccc(F)cc2c2ccc3c(c21)C(=O)C=CC3=O` = 37.9

Please fill in: TGI reported for `O=C(CCBr)N1CCN(C(=O)CCBr)CC1` = 212

Please fill in: TGI reported for `CN(C)CCNC(=O)c1cccc2ccc(-c3ccc(Br)cc3)nc12` = 9.08

Please fill in: TGI reported for `O=C(CCCn1c2c(sc3ccccc32)c(=O)n2nnc(-c3ccccc3)c12)NCCc1cnc[nH]1` = 18.6

Please fill in: TGI reported for `C[C@@H](N)COc1ccc(-c2cnc3ccc(N[C@H](C)c4cccc(F)c4)nn23)cc1` = 12.6

Please fill in: TGI reported for `CN1CCN(C(=O)CCC(=O)Nc2cc3c(c4ccccc24)-c2ccc4ccccc4c2C3)CC1` = 3.13

----------
# System: CCRF-CEM leukemia
# Protocol Text: NCI tumour cell line growth inhibition, 48 h
TGI values, listed per item

COc1ccc2c(c1)CC[C@@H]1C2CC[C@]2(C)C(=O)N(CCN(C)C)C(=O)CC12 (stereo partly drawn) :: > 100 µM
C[C@@]1(CCCCCCCCCCc2ccccc2)C[C@@]2(C)OC(=O)C[C@H]2OO1 :: 3.34 µM
Cn1c2ccc(F)cc2c2ccc3c(c21)C(=O)C=CC3=O :: 5.27 µM
Nn1c(Nc2ccc(S(N)(=O)=O)cc2)nnc(/C=C/c2c(O)ccc3ccccc23)c1=O :: 18.8 µM

Please fill in: TGI reported for `CC1(C)OC[C@H](C(=N)OCc2ccccc2)O1` = > 100 µM

Please fill in: TGI reported for COc1cc(C2c3cc4c(cc3OC(NNC(N)=O)C2C)OCO4)cc(OC)c1OC (stereo not drawn) = 0.507 µM

Please fill in: TGI reported for CCCCCCC1N=C(N)N=C(N)N1c1cccc(Cl)c1 (stereo not drawn) = > 66.8 µM

Please fill in: TGI reported for `CC1=NN(C(=O)Cc2ccccc2)C(=O)/C1=C\c1ccc([N+](=O)[O-])cc1` = > 100 µM

----------
TGI values, listed per item
# Test system: SR leukemia
# Protocol Text: NCI tumour cell line growth inhibition, 48 h

A selection of reference data follows.
CCN1c2ccccc2NC(=S)c2c1n[nH]c2-c1ccccc1 :: 67.3 µM
O=c1ccc2ccc(CBr)cc2o1 :: 5.05 µM
COc1ccc2c(c1)CC[C@@H]1C2CC[C@]2(C)C(=O)N(CCN(C)C)C(=O)CC12 (stereo partly specified) :: > 100 µM
O=C(C=Nc1ccccc1C(=O)[O-])c1cccs1.O=C(C=Nc1ccccc1C(=O)[O-])c1cccs1.[Ni+2] :: > 100 µM

Please fill in: TGI reported for `Cn1cnc(N2CCCC2)c(C#N)c1=S` = > 100 µM

Please fill in: TGI reported for `CCOC(=O)/C=C(/C(=O)OCC)n1cc(C)c(=O)n(Cc2cnnn2COCCOC(C)=O)c1=O` = 39.6 µM

Please fill in: TGI reported for `Clc1cc(-c2ccccc2)nc(Nc2nc3ccccc3[nH]2)n1` = 10.5 µM

Please fill in: TGI reported for COc1ccc2c(c1)N(Cc1ccc(Cl)cc1)CCC2N1CCCC1=O (stereo unspecified) = > 100 µM

Please fill in: TGI reported for `Cc1cc(=O)oc2cc(OCCCOc3ccc4c(C)cc(=O)oc4c3)ccc12` = > 100 µM

Please fill in: TGI reported for `N#CC(C#N)=CNCCN1CCN(C=C(C#N)C#N)CC1` = > 100 µM

Please fill in: TGI reported for `Cc1cc2nc3c(C#N)c4c(c(Nc5ccc(F)cc5)n3c2cc1C)CCC4` = > 100 µM
